experiment: Solubility experiment in different media, thermodynamic solubility at 37°C; type: physicochemical; details: medium of pH 4, aqueous buffer, thermodynamic from solid; medium pH 4, 37° C., 24 hours, thermodynamic solubility
endpointLabel: solubility at 24 h
Value and unit, in that order.

Qu. Recorded solubility at 24 h for CCS(=O)(=O)O.C[C@H](Nc1ccc2c(c1)OCCn1cc(N3C(=O)SC[C@H]3C(F)F)nc1-2)C(N)=O [crystal form A of ethanesulfonate salt] , please?
Ans. 49 µg/mL

* * *

target: PI3Kγ (Homo sapiens, UniProt P48736); construct: purchased Thermofisher #PV4786; assay: ADP-Glo Lipid Kinase Assay, PI3Kγ kinase activity; format: biochemical; settings: ratio of IC50 values
Sequence (P48736 whole entry): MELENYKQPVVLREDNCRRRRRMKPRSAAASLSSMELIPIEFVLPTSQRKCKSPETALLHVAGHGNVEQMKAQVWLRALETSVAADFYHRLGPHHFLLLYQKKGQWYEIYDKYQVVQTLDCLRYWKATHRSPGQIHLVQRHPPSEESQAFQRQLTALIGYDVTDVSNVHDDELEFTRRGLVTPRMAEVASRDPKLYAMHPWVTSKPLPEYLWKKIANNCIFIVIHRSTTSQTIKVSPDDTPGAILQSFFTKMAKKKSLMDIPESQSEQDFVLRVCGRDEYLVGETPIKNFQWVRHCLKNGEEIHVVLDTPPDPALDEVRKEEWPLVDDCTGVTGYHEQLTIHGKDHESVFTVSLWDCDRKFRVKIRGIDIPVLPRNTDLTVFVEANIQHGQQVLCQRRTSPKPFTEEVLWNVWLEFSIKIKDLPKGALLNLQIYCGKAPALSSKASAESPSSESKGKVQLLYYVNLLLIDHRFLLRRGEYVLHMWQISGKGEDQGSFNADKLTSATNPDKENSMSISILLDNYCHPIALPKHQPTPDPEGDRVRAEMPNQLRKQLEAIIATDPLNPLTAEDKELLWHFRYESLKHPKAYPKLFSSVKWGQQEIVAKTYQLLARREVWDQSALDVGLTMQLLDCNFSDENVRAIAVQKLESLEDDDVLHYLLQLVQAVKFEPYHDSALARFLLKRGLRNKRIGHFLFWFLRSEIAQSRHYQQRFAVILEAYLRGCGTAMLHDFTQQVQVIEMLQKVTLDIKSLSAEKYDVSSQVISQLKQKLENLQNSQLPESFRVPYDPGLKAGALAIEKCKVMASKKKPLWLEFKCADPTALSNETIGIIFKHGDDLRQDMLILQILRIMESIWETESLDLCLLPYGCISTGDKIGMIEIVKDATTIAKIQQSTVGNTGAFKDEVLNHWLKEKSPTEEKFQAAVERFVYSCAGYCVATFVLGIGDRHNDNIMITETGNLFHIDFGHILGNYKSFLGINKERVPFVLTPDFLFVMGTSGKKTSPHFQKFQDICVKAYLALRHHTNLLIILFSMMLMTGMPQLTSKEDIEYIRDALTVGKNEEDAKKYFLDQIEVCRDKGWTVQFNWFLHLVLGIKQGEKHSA
endpointLabel: Selectivity of PI3Kα vs PI3Kγ
Answers are plain numbers.

Would you please look over these solved cases?
C[C@H](Nc1cc(F)c2c(c1)OCCn1cc(N3C(=O)OC[C@H]3C(F)F)nc1-2)C(N)=O [Example 32]	98
C[C@H](Nc1ccc2c(c1)OCCn1cc(N3C(=O)N(C)C[C@H]3C(F)F)nc1-2)C(N)=O [Example 24]	80
C[C@H](Nc1ccc2c(c1F)OCCn1cc(N3C(=O)SC[C@H]3C(F)F)nc1-2)C(N)=O [Example 50]	103

Hey, quick one: what's Selectivity of PI3Kα vs PI3Kγ for each of these?
1. C[C@H](Nc1ccc2c(c1)N(C)CCn1cc(N3C(=O)OC[C@H]3C(F)F)nc1-2)C(N)=O [Example 56]
2. C[C@@H](C(N)=O)N(C)c1ccc2c(c1)OCCn1cc(N3C(=O)OC[C@H]3C(F)F)nc1-2 [Example 19]
3. COC[C@H](Nc1ccc2c(c1)OCCn1cc(N3C(=O)SC[C@H]3C(F)F)nc1-2)C(N)=O [Example 52]
4. C[C@H](Nc1ccc2c(c1)SCCn1cc(N3C(=O)OC[C@H]3C(F)F)nc1-2)C(N)=O [Example 62]

Ans.
1. 180
2. 648
3. 376
4. 500

Kindly give each listed record's Selectivity of PI3Kα vs PI3Kγ.
1. C[C@H](Nc1ccc2c(c1)OCCn1cc(N3C(=O)SC[C@H]3C(F)F)nc1-2)C(N)=O [Example 22]
2. C[C@H](Nc1ccc2c(c1)OCCn1c-2nc(N2C(=O)OC[C@H]2C(F)F)c1F)C(N)=O [Example 1]
3. COC[C@H](Nc1ccc2c(c1F)OCCn1cc(N3C(=O)SC[C@H]3C(F)F)nc1-2)C(N)=O [Example 51]
4. NC(=O)[C@@H]1CCCN1c1ccc2c(c1)OCCn1cc(N3C(=O)SC[C@H]3C(F)F)nc1-2 [Example 53]
5. C[C@@H](C(N)=O)N(C)c1ccc2c(c1)OCCn1cc(N3C(=O)SC[C@H]3C(F)F)nc1-2 [Example 54]
6. C[C@H](Nc1ccc2c(c1F)OCCn1cc(N3C(=O)OC[C@H]3C(F)F)nc1-2)C(N)=O [Example 31]
7. C[C@H](Nc1ccc2c(c1)OCCn1cc(N3C(=O)O[C@H](C)[C@H]3C(F)F)nc1-2)C(N)=O [Example 25]
8. C[C@H](Nc1ccc2c(c1)OCCn1cc(N3C(=O)CC[C@H]3C(F)F)nc1-2)C(N)=O [Example 46]

Ans.
450
226
170
254
217
87
401
243

Please go through the list and note Selectivity of PI3Kα vs PI3Kγ for each compound.
1. CC(C)[C@H](Nc1ccc2c(c1)OCCn1cc(N3C(=O)OC[C@H]3C(F)F)nc1-2)C(N)=O [Example 14]
2. CC(Nc1ccc2c(c1)OCCn1cc(N3C(=O)OC(C)[C@H]3C(F)F)nc1-2)C(N)=O (stereo in doubt) [Example 26]

Ans.
[112, 214]
